Test system: SNB-19
Test: NCI tumour cell line growth inhibition, 48 h
The source made the active and inactive calls. Rule as the data show it: active = GI50 up to about 1.1 µM and inactive = higher.

[
  {
    "compound": "O=c1c2sc3ccccc3sc=2c(=O)c2c(Cl)c(Cl)c(Cl)c(Cl)c12",
    "GI50": "> 100 µM (inactive)"
  },
  {
    "compound": "COC(=O)Cc1cc(O)c(C/C=C(\\C)CC/C=C(\\C)C(O)C(=O)C=C(C)C)cc1O (stereo unspecified)",
    "GI50": "32 µM (inactive)"
  },
  {
    "compound": "CCCCCCCCCCCCCCCCOCC(O)CO (stereo unspecified)",
    "GI50": "24 µM (inactive)"
  },
  {
    "compound": "CN(c1nc(=[N+](C)C)ss1)C1CCCCC1",
    "GI50": "70.5 µM (inactive)"
  },
  {
    "compound": "Oc1ccc(-c2csc(N/N=C3\\NC/C(=C/c4ccc5c(c4)OCO5)S3)n2)cc1O",
    "GI50": "14.4 µM (inactive)"
  },
  {
    "compound": "Cc1cc(-n2c(/C=C/c3ccc(Cl)cc3)nc3cc(Cl)ccc3c2=O)on1",
    "GI50": "9.86 µM (inactive)"
  }
]

---

Test system: K562
Experiment: NCI tumour cell line growth inhibition, 48 h
Active and inactive are the calls of the source. Rule as the data show it: active = GI50 up to about 1.1 µM and inactive = higher.
Outcomes: class 1 = active, class 0 = inactive

[
  {
    "molecule": "Cc1ccccc1C1OC1C(=O)c1ccccc1N (centres undefined)",
    "cat": "class 0"
  },
  {
    "molecule": "Nc1ccc(C(=O)O)c2[nH]c3ccccc3c(=O)c12",
    "cat": "class 0"
  },
  {
    "molecule": "CN1CCCC(C(=O)OCC(=O)C2(O)CCC3C4CCC5=CC(=O)CCC5(C)C4C(O)CC32C)C1 (centres undefined)",
    "cat": "class 0"
  },
  {
    "molecule": "Cc1ccc(S(=O)(=O)N/N=C2/C3CCC(C3)C2c2ccccc2)cc1 (centres undefined)",
    "cat": "class 0"
  },
  {
    "molecule": "COc1ccc(/N=[N+](\\[O-])c2ccc(OC)cc2)cc1",
    "cat": "class 0"
  },
  {
    "molecule": "COC1/C=C/C(C)C(C(C)C(OC)C(C)CCC(=O)C(C)C(C/C=C/N(C)C=O)OC)OC(=O)C=CC2OC2(C)CC(OC)C(OC)C2=CC(=O)O[C@@H](C(C)C(OC)CC(OC)/C=C/C(C)C(O)C1)[C@H]2O (some centres undefined)",
    "cat": "class 1"
  },
  {
    "molecule": "COC(=O)Cc1cc(O)c(C/C=C(\\C)CC/C=C(\\C)C(O)C(=O)C=C(C)C)cc1O (centres undefined)",
    "cat": "class 0"
  },
  {
    "molecule": "Clc1cc2n[se]nc2cc1Cl",
    "cat": "class 0"
  },
  {
    "molecule": "COC(=O)CNC(=O)C(Cc1ccccc1)NC(=O)c1ccc(-c2ccc(Cl)cc2Cl)o1 (centres undefined)",
    "cat": "class 0"
  }
]

---

Tested on: OVCAR-8
Experiment: NCI tumour cell line growth inhibition, 48 h
Active and inactive are the calls of the source. Rule as the data show it: active = GI50 up to about 1.1 µM and inactive = higher.
// reported GI50 per item

[
  {
    "compound": "COC(=O)c1ccccc1/C=C1\\Cc2c(C)cc(C)cc2C1=O",
    "GI50": "> 100 µM (inactive)"
  },
  {
    "compound": "Cc1nc(Nc2ccc(Cl)cc2)sc1C(=O)NNC(=S)NN",
    "GI50": "21.3 µM (inactive)"
  },
  {
    "compound": "CCN(CC)CCCCC1CCN(CC(=O)N2c3ccccc3NC(=O)c3ccccc32)CC1",
    "GI50": "> 100 µM (inactive)"
  },
  {
    "compound": "COc1ccc(NC(=O)CC(=O)n2nc(C)c(/N=N/c3ccccc3C(=O)O)c2C)cc1",
    "GI50": "> 100 µM (inactive)"
  },
  {
    "compound": "Cc1ccc2c(c1)C1(OC(=O)c3ccccc31)c1ccc(F)cc1O2 (stereo unspecified)",
    "GI50": "> 100 µM (inactive)"
  },
  {
    "compound": "C=CC[C@H]1C[C@@]2(C)OC[C@H](C(C)C)N2C1=O",
    "GI50": "> 100 µM (inactive)"
  },
  {
    "compound": "CCOC(=O)c1cnc2[nH]c(=O)c3ccccc3n2c1=O",
    "GI50": "> 100 µM (inactive)"
  },
  {
    "compound": "CCOc1cc2c(NCCCN(CCO)CCO)ncnc2c(OCC)c1OCC",
    "GI50": "> 100 µM (inactive)"
  },
  {
    "compound": "NCCSCc1ccccc1Cl",
    "GI50": "43.3 µM (inactive)"
  },
  {
    "compound": "NC(=O)CC(/N=C1\\C(=O)OC(C(O)CO)\\C1=N/C(CC(N)=O)C(=O)O)C(=O)O (stereo unspecified)",
    "GI50": "> 100 µM (inactive)"
  },
  {
    "compound": "CCCCc1ccc(-n2c3nc(=O)n(C)c(=O)c-3nc3ccccc32)cc1",
    "GI50": "7.57 µM (inactive)"
  }
]

---

Tested on: SNB-75
Assay: NCI tumour cell line growth inhibition, 48 h
The source made the active and inactive calls. No stated cut-off is given here; in the data, active = GI50 up to about 1.1 µM and inactive = higher. Non-standard residues stand in square brackets, D forms with d. Residues, ends and D or L forms follow the SMILES beside them. ξ: configuration not given here. *: point of attachment. NMeF = CN[C@@H](Cc1ccccc1)C(=O)O; ξNMeV = CNC(C(=O)O)C(C)C; Boc = CC(C)(C)OC(=O)*; OBn = c1ccc(CO*)cc1
Outcomes: YES for active, NO for inactive

[
  {
    "compound": "O=C1N=C(Nc2ccccc2Cl)N/C1=C\\c1ccc(Cl)cc1Cl",
    "tested target": "SNB-75",
    "cat": "NO"
  },
  {
    "compound": "CC1Cc2c(N)nc(N3CCOCC3)nc2NC1=O (configuration not stated)",
    "tested target": "SNB-75",
    "cat": "NO"
  },
  {
    "compound": "CC(C)C(C(=O)N1CCC[C@@H]1C(=O)OCc1ccccc1)N(C)C(=O)C(C(C)C)N(C)C(=O)[C@H](Cc1ccccc1)N(C)C(=O)[C@H](NC(=O)OC(C)(C)C)C(C)C (some centres not stated) (Boc-[dV][NMeF][ξNMeV][ξNMeV][dP]-OBn)",
    "tested target": "SNB-75",
    "cat": "NO"
  },
  {
    "compound": "O=C1Nc2cccc(Cl)c2/C1=C\\c1cccnc1",
    "tested target": "SNB-75",
    "cat": "NO"
  },
  {
    "compound": "COCOCC[C@@H]1CC=CC(NC(=O)OCc2ccccc2)C1/C=C/C(=O)CCC1OCCO1 (some centres not stated)",
    "tested target": "SNB-75",
    "cat": "NO"
  },
  {
    "compound": "CCCC(N)C(=O)c1ccccc1 (configuration not stated)",
    "tested target": "SNB-75",
    "cat": "NO"
  },
  {
    "compound": "CC(C)CC(NC(=O)C(O)C(N)Cc1ccccc1)C(=O)O (configuration not stated)",
    "tested target": "SNB-75",
    "cat": "NO"
  },
  {
    "compound": "CC1CC2C(=O)N(c3ccccc3)C(=O)C2c2[nH]c3ccccc3c21 (configuration not stated)",
    "tested target": "SNB-75",
    "cat": "NO"
  },
  {
    "compound": "CCC(=O)ONC(=O)Cn1ccc([N+](=O)[O-])n1",
    "tested target": "SNB-75",
    "cat": "NO"
  },
  {
    "compound": "COC(=O)C12CCC(C(F)(F)C1=O)C2(C)C (configuration not stated)",
    "tested target": "SNB-75",
    "cat": "NO"
  },
  {
    "compound": "Cc1ccc(N2C(=O)/C(=C3\\Sc4c(nc(C)[nH]c4=O)N3c3ccccc3)SC2=S)cc1",
    "tested target": "SNB-75",
    "cat": "NO"
  },
  {
    "compound": "C#CCOCn1cc(C)c(=O)[nH]c1=O",
    "tested target": "SNB-75",
    "cat": "NO"
  },
  {
    "compound": "COc1cccc2c1C(=O)c1c(O)c3c(c(O)c1C2=O)C[C@@](O)(C(=O)CO)C[C@@H]3OC1CC(N)CC(C)O1 (some centres not stated)",
    "tested target": "SNB-75",
    "cat": "YES"
  },
  {
    "compound": "NCCc1nc(-c2nc(C(=O)O)cs2)cs1",
    "tested target": "SNB-75",
    "cat": "NO"
  },
  {
    "compound": "COc1cc(C)c2c(=O)c3ccccc3n(C)c2c1",
    "tested target": "SNB-75",
    "cat": "NO"
  },
  {
    "compound": "Cc1cccc2c1Sc1ccccc1C2NC(=O)CN(C)C (configuration not stated)",
    "tested target": "SNB-75",
    "cat": "NO"
  },
  {
    "compound": "O=c1c(O)c(-c2ccc(O)cc2O)oc2cc(O)cc(O)c12",
    "tested target": "SNB-75",
    "cat": "NO"
  },
  {
    "compound": "COc1ccccc1C1C(C(=O)O)=C(CO)Oc2cc3c(cc21)OCO3 (configuration not stated)",
    "tested target": "SNB-75",
    "cat": "NO"
  },
  {
    "compound": "Cc1cc(Cl)ccc1/N=C1/NC(=O)C(CC(=O)Nc2cccc(C)c2C)S1 (configuration not stated)",
    "tested target": "SNB-75",
    "cat": "NO"
  },
  {
    "compound": "Cn1c(=O)c2c(ncn2CCCCn2ccnc2[N+](=O)[O-])n(C)c1=O",
    "tested target": "SNB-75",
    "cat": "NO"
  },
  {
    "compound": "Sc1nnc(-c2cccnc2)[nH]1",
    "tested target": "SNB-75",
    "cat": "NO"
  },
  {
    "compound": "O=C(O)CCC1(CCC(=O)O)CCCCCCCCC(CCC(=O)O)(CCC(=O)O)C(=O)C1=O",
    "tested target": "SNB-75",
    "cat": "NO"
  },
  {
    "compound": "O=C1c2sc(-c3ccc(Cl)cc3)cc2-n2cccc21",
    "tested target": "SNB-75",
    "cat": "NO"
  },
  {
    "compound": "CSc1c(C#N)c(N)nc2c(/N=N\\c3ccc(Cl)cc3)c(N)nn12",
    "tested target": "SNB-75",
    "cat": "NO"
  },
  {
    "compound": "O=c1cccc2n1C[C@H]1CNC[C@H]2C1",
    "tested target": "SNB-75",
    "cat": "NO"
  },
  {
    "compound": "C[N+]1([O-])CCC(O)(C2CC2)CC1 (configuration not stated)",
    "tested target": "SNB-75",
    "cat": "NO"
  },
  {
    "compound": "C/C=C/[C@@H](C(=O)OC)N1C(=O)c2ccccc2[C@H]1O",
    "tested target": "SNB-75",
    "cat": "NO"
  },
  {
    "compound": "CCOC(=O)C1(C/C=C/CBr)Cc2ccccc2C1=O (configuration not stated)",
    "tested target": "SNB-75",
    "cat": "NO"
  },
  {
    "compound": "CCN1C(=O)/C(=C2\\SC(c3ccccc3)(c3ccccc3)c3ccccc32)SC1=S",
    "tested target": "SNB-75",
    "cat": "NO"
  },
  {
    "compound": "C/C(CC1C2CCCC1C2)=N\\NC(N)=O (configuration not stated)",
    "tested target": "SNB-75",
    "cat": "NO"
  },
  {
    "compound": "O=C(Nc1ccc(Cl)c(C(F)(F)F)c1)C(=O)c1c(O)c2ccccc2oc1=O",
    "tested target": "SNB-75",
    "cat": "NO"
  },
  {
    "compound": "CC(C)(C)C1=NO[C@H]2[C@@H](NC(=O)c3ccccc3)CC[C@@H]12",
    "tested target": "SNB-75",
    "cat": "NO"
  },
  {
    "compound": "CCN(CC)CCCNC(=O)c1cc2cc(NC(=O)c3cc4cc([N+](=O)[O-])ccc4[nH]3)ccc2[nH]1",
    "tested target": "SNB-75",
    "cat": "NO"
  },
  {
    "compound": "NC1=NS(=O)(=O)Nc2nc(-c3ccc(Cl)cc3)c(-c3ccc(Cl)cc3)nc21",
    "tested target": "SNB-75",
    "cat": "NO"
  },
  {
    "compound": "O=C(O)Cc1ccc2nc(COC(=O)c3ccccc3)sc2c1",
    "tested target": "SNB-75",
    "cat": "NO"
  },
  {
    "compound": "CCCCCC(CN1CCOCC1)C(=O)/C=C/c1ccccc1 (configuration not stated)",
    "tested target": "SNB-75",
    "cat": "NO"
  },
  {
    "compound": "O=C(O)C1C(Br)(c2ccccc2)C1(Br)c1ccccc1 (configuration not stated)",
    "tested target": "SNB-75",
    "cat": "NO"
  },
  {
    "compound": "COC(=O)CNC(=O)C(Cc1ccccc1)NC(=O)c1ccc(-c2ccc(Cl)cc2Cl)o1 (configuration not stated)",
    "tested target": "SNB-75",
    "cat": "NO"
  },
  {
    "compound": "COc1ccc2c(c1)CCC(CN1CCN(CCOC(c3ccc(F)cc3)c3ccc(F)cc3)CC1)=C2",
    "tested target": "SNB-75",
    "cat": "NO"
  },
  {
    "compound": "O=C(NCCCCCCCCNC(=O)c1cnc2ccccc2n1)c1cnc2ccccc2n1",
    "tested target": "SNB-75",
    "cat": "NO"
  },
  {
    "compound": "Cc1ccc(N/C(SCc2ccccc2)=C(\\C(Cl)=C(Cl)Cl)[N+](=O)[O-])c(C)c1",
    "tested target": "SNB-75",
    "cat": "NO"
  },
  {
    "compound": "C=C[C@H]1CN2CCc3c([nH]c4c([C@@H]5CCCN5C)c(O)ccc34)[C@@H]2C[C@@H]1C[C@H]1c2[nH]c3ccccc3c2CCN1C",
    "tested target": "SNB-75",
    "cat": "YES"
  }
]
